Reported IC50 values are given for each entry in this list.
Test system: Leishmania major
EXPERIMENTAL DETAILS: Antileishmanial activity against promastigote form of Leishmania major after 72 hr by Neubauer counting analysis
Format: functional, organism-based
Answer in µg/mL, number only, no unit symbol.

A selection of reference data follows.
>>> result_value("Clc1ccccc1-c1nc2ccccc2[nH]1")
0.78
>>> result_value("Clc1ccc(-c2nc3ccccc3[nH]2)cc1")
0.72
>>> result_value("O=[N+]([O-])c1ccc2[nH]c(-c3ccccc3)nc2c1")
0.8
>>> result_value("O=[N+]([O-])c1ccc2[nH]c(-c3cccs3)nc2c1")
0.82

Proceeding to the next compound to report its IC50.
Ask: Specify measured IC50 for c1ccc(-c2nc3ccccc3[nH]2)cc1 .
Result: 0.68
